experiment: yeast display, Sf9 membrane polyspecificity reagent, FACS + sequencing; frameworks hold sequencing errors
QUANTITY_MEASURED: polyreactivity (PSR sort gate)

Would you please look over these solved cases?
- QVQLVESGGGLVQPGGSLRLSCAASGRTFRTNAMGWSRQEPGKERELVAAISTGGGITNYADSVKGRFTISRDNAKNTVYLQMNCLKPEDTAVYYCAARLAYNAIGYYYWGQGTQVTVSS: low polyreactivity
- QVQLVESGGGLVQAGGSLRLSCAASGFTFSWYAMGWYRQAPGKERELVAAITRSGGSTNYADSVKGRFTISRDNAKNTVYLQMNSLKPEDTAVYYCNAAGYRRSTWWYDYWGQGTQVTVSS: high polyreactivity
- QVQLVESGGGLVQAGGSLRLSCAASGFIFWYYAMGWSRQAPGKERELVAAISGSGGRTYYADSVKGRFTISRDNAKNTVYLQLNSLKPEDTAVYYCNARRAAYYHRARELDYWGEGTQVTVSS: high polyreactivity
- QVQLVESGGGLVQAGGSLRLSCAASGSIFDSYAMGWYRQAPGKERELVASISSDGGGTYYADSVKGRFTISRDNAKNTVYLQMNSLKPEDTAVYYCARTRTYNSRTMDYWGQGTQVTVSS: low polyreactivity

[Q] Suppose we examine the sequence `QVQLVESGGGLVQAVGSLRLSCAASGFTFGRYAMGWYIQAPAKEREFVASISARGGNTFYADSVKGRFTISRDNAKNTVYLQMNSLKPEDTAVYYCNAYYLAEYDYWGQGTQVTVSS` ; what polyreactivity (PSR sort gate) value has been reported?
[A] high polyreactivity
